# Tested on: Staphylococcus aureus
# PROTOCOL SUMMARY: In vitro antimicrobial activity against Staphylococcus aureus X1
# Assay type: functional
Kindly supply the reported MIC values for the records listed here.
Your answer should be a plain number; it is taken to be in µg/mL.

Please report the recorded MIC for CCOC(=O)NN(CC[C@H]1C[C@@H](C)C(=O)/C=C/C(C)=C/[C@H](CO[C@@H]2O[C@H](C)[C@@H](O)[C@@H](OC)[C@H]2OC)[C@@H](CC)OC(=O)C[C@@H](O)[C@H](C)[C@H]1O[C@@H]1O[C@H](C)[C@@H](O)[C@H](N(C)C)[C@H]1O)C(=O)OCC . 0.5

Record request: MIC value, item CC[C@H]1C[C@@H](C)C(=O)/C=C/C(C)=C/[C@H](CO[C@@H]2O[C@H](C)[C@@H](O)[C@@H](OC)[C@H]2OC)[C@@H](CC)OC(=O)C[C@@H](O)[C@H](C)[C@H]1O[C@@H]1O[C@H](C)[C@@H](O)[C@H](N(C)C)[C@H]1O 0.25

Entry CC[C@H]1OC(=O)C[C@@H](O)[C@H](C)[C@@H](O[C@@H]2O[C@H](C)[C@@H](O)[C@H](N(C)C)[C@H]2O)[C@@H](CCN2C(=O)c3ccccc3C2=O)C[C@@H](C)C(=O)/C=C/C(C)=C/[C@@H]1CO[C@@H]1O[C@H](C)[C@@H](O)[C@@H](OC)[C@H]1OC : reported MIC = ? 0.12

State the recorded MIC for this entry: CC[C@H]1OC(=O)C[C@@H](O)[C@H](C)[C@@H](O[C@@H]2O[C@H](C)[C@@H](O[C@H]3C[C@@](C)(O)[C@@H](O)[C@H](C)O3)[C@H](N(C)C)[C@H]2O)[C@@H](CCI)C[C@@H](C)C(=O)/C=C/C(C)=C/[C@@H]1CO[C@@H]1O[C@H](C)[C@@H](O)[C@@H](O)[C@H]1OC 2

* * *

# Test system: Bacteroides fragilis
# PROTOCOL SUMMARY: In vitro antimicrobial activity against anaerobic bacteria bacteroides fragilis 1936B,
# Type: functional
ENDPOINT: MIC (µg/mL)
Write down the numeric answer in µg/mL and omit the unit.

Could you share which MIC value was measured for CC[C@H]1OC(=O)[C@H](C)[C@@H](O[C@H]2C[C@@](C)(OC)[C@@H](O)[C@H](C)O2)[C@H](C)[C@@H](O[C@@H]2O[C@H](C)C[C@H](N(C)C)[C@H]2O)[C@](C)(O)C[C@@H](C)C(=O)[C@H](C)[C@@H](O)[C@]1(C)O [ERYTHROMYCIN] ? 2

So what's the measured MIC for this one? CC[C@H]1OC(=O)C[C@@H](O)[C@H](C)[C@@H](O[C@@H]2O[C@H](C)[C@@H](O)[C@H](N(C)C)[C@H]2O)[C@@H](CCOc2ccc(C(=O)c3ccccc3)cc2)C[C@@H](C)C(=O)/C=C/C(C)=C/[C@@H]1CO[C@@H]1O[C@H](C)[C@@H](O)[C@@H](OC)[C@H]1OC 4

Requested field: MIC. Item: CC[C@H]1OC(=O)C[C@@H](O)[C@H](C)[C@@H](O[C@@H]2O[C@H](C)[C@@H](O[C@H]3C[C@@](C)(O)[C@@H](O)[C@H](C)O3)[C@H](N(C)C)[C@H]2O)[C@@H](CCCl)C[C@@H](C)C(=O)/C=C/C(C)=C/[C@@H]1CO[C@@H]1O[C@H](C)[C@@H](O)[C@@H](OC)[C@H]1OC 4

What does the record list as MIC for CC[C@H]1OC(=O)C[C@@H](O)[C@H](C)[C@@H](O[C@@H]2O[C@H](C)[C@@H](O[C@H]3C[C@@](C)(O)[C@@H](O)[C@H](C)O3)[C@H](N(C)C)[C@H]2O)[C@@H](CCO)C[C@@H](C)C(=O)/C=C/C(C)=C/[C@@H]1CO[C@@H]1O[C@H](C)[C@@H](O)[C@@H](OC)[C@H]1OC [RELOMYCIN] ? 8

Look up MIC: CC[C@H]1OC(=O)C[C@@H](O)[C@H](C)[C@@H](O[C@@H]2O[C@H](C)[C@@H](O)[C@H](N(C)C)[C@H]2O)[C@@H](CCOc2ccccc2)C[C@@H](C)C(=O)/C=C/C(C)=C/[C@@H]1CO[C@@H]1O[C@H](C)[C@@H](O)[C@@H](OC)[C@H]1OC 1

Sample CC[C@H]1OC(=O)C[C@@H](O)[C@H](C)[C@@H](O[C@@H]2O[C@H](C)[C@@H](O)[C@H](N(C)C)[C@H]2O)[C@@H](CCN=[N+]=[N-])C[C@@H](C)C(=O)/C=C/C(C)=C/[C@@H]1CO[C@@H]1O[C@H](C)[C@@H](O)[C@@H](OC)[C@H]1OC — what was its MIC? 2

Bench note: what MIC did CC[C@H]1C[C@@H](C)C(=O)/C=C/C(C)=C/[C@H](CO[C@@H]2O[C@H](C)[C@@H](O)[C@@H](OC)[C@H]2OC)[C@@H](CC)OC(=O)C[C@@H](O)[C@H](C)[C@H]1O[C@@H]1O[C@H](C)[C@@H](O)[C@H](N(C)C)[C@H]1O show? 4

* * *

# Test system: Staphylococcus epidermidis
# PROTOCOL SUMMARY: In vitro antimicrobial activity against aerobic bacteria Streptococcus epi 270
# Format: functional
For each of the molecules below, state its MIC.

Which measured MIC value corresponds to CC[C@H]1OC(=O)C[C@@H](O)[C@H](C)[C@@H](O[C@@H]2O[C@H](C)[C@@H](O[C@H]3C[C@@](C)(O)[C@@H](O)[C@H](C)O3)[C@H](N(C)C)[C@H]2O)[C@@H](CCOc2ccccc2)C[C@@H](C)C(=O)/C=C/C(C)=C/[C@@H]1CO[C@@H]1O[C@H](C)[C@@H](O)[C@@H](OC)[C@H]1OC ? > 128 µg/mL

Please give the measured MIC for this molecule: CC[C@H]1OC(=O)C[C@@H](O)[C@H](C)[C@@H](O[C@@H]2O[C@H](C)[C@@H](O)[C@H](N(C)C)[C@H]2O)[C@@H](CCOc2ccc(-c3ccccc3)cc2)C[C@@H](C)C(=O)/C=C/C(C)=C/[C@@H]1CO[C@@H]1O[C@H](C)[C@@H](O)[C@@H](OC)[C@H]1OC 128 µg/mL

Value lookup for MIC; key = CC[C@H]1OC(=O)C[C@@H](O)[C@H](C)[C@@H](O[C@@H]2O[C@H](C)[C@@H](O[C@H]3C[C@@](C)(O)[C@@H](O)[C@H](C)O3)[C@H](N(C)C)[C@H]2O)[C@@H](CC=O)C[C@@H](C)C(=O)/C=C/C(C)=C/[C@@H]1CO > 128 µg/mL

Need MIC of CC[C@H]1OC(=O)C[C@@H](O)[C@H](C)[C@@H](O[C@@H]2O[C@H](C)[C@@H](O)[C@H](N(C)C)[C@H]2O)[C@@H](CC=O)C[C@@H](C)C(=O)/C=C/C(C)=C/[C@@H]1CO , thanks. > 128 µg/mL

* * *

Hi there, I'd appreciate the recorded ED50 for every entry that follows.
# Tested on: Streptococcus pneumoniae
# PROTOCOL SUMMARY: In vivo effective dose against experimental infections in mice Streptococcus pneumoniae park when administered orally
# Format: functional
# STATED CONDITIONS: po
Numbers only; they are read as mg/kg.

What value of ED50 has been reported for the following compound? CC[C@H]1OC(=O)C[C@@H](O)[C@H](C)[C@@H](O[C@@H]2O[C@H](C)[C@@H](O)[C@H](N(C)C)[C@H]2O)[C@@H](CCOc2ccc(Oc3ccccc3)cc2)C[C@@H](C)C(=O)/C=C/C(C)=C/[C@@H]1CO[C@@H]1O[C@H](C)[C@@H](O)[C@@H](OC)[C@H]1OC 38

Please report the recorded ED50 for CC[C@H]1OC(=O)C[C@@H](O)[C@H](C)[C@@H](O[C@@H]2O[C@H](C)[C@@H](O)[C@H](N(C)C)[C@H]2O)[C@@H](CCOc2cccc(Oc3ccccc3)c2)C[C@@H](C)C(=O)/C=C/C(C)=C/[C@@H]1CO[C@@H]1O[C@H](C)[C@@H](O)[C@@H](OC)[C@H]1OC . 46

Any idea what its ED50 is? The compound is CC[C@H]1OC(=O)C[C@@H](O)[C@H](C)[C@@H](O[C@@H]2O[C@H](C)[C@@H](O)[C@H](N(C)C)[C@H]2O)[C@@H](CCOc2ccc(-c3ccccc3)cc2)C[C@@H](C)C(=O)/C=C/C(C)=C/[C@@H]1CO[C@@H]1O[C@H](C)[C@@H](O)[C@@H](OC)[C@H]1OC 37

* * *

# System: Staphylococcus aureus
# PROTOCOL SUMMARY: In vitro antimicrobial activity against Staphylococcus aureus X1
# Format: functional
Give measured log10 MIC for each item. Keep answers brief.
Could you please treat all values as log10 of MIC in µg/mL?

I would be grateful if you could share the reported log10 MIC for CC[C@H]1OC(=O)C[C@@H](O)[C@H](C)[C@@H](O[C@@H]2O[C@H](C)[C@@H](O[C@H]3C[C@@](C)(O)[C@@H](O)[C@H](C)O3)[C@H](N(C)C)[C@H]2O)[C@@H](CCOc2cccc(N(C)C)c2)C[C@@H](C)C(=O)/C=C/C(C)=C/[C@@H]1CO[C@@H]1O[C@H](C)[C@@H](O)[C@@H](OC)[C@H]1OC . 0.00

I would be grateful if you could share the reported log10 MIC for CC[C@H]1OC(=O)C[C@@H](O)[C@H](C)[C@@H](O[C@@H]2O[C@H](C)[C@@H](O[C@H]3C[C@@](C)(O)[C@@H](O)[C@H](C)O3)[C@H](N(C)C)[C@H]2O)[C@@H](CCN=[N+]=[N-])C[C@@H](C)C(=O)/C=C/C(C)=C/[C@@H]1CO[C@@H]1O[C@H](C)[C@@H](O)[C@@H](OC)[C@H]1OC . 0.30

So what does the record say about log10 MIC for CCOC(C[C@H]1C[C@@H](C)C(=O)/C=C/C(C)=C/[C@H](CO[C@@H]2O[C@H](C)[C@@H](O)[C@@H](OC)[C@H]2OC)[C@@H](CC)OC(=O)C[C@@H](O)[C@H](C)[C@H]1O[C@@H]1O[C@H](C)[C@@H](O)[C@H](N(C)C)[C@H]1O)OCC ? -0.30

// query log10 MIC value for entry CC[C@H]1OC(=O)C[C@@H](O)[C@H](C)[C@@H](O[C@@H]2O[C@H](C)[C@@H](O)[C@H](N(C)C)[C@H]2O)[C@@H](CCOc2ccc(OC(C)=O)cc2)C[C@@H](C)C(=O)/C=C/C(C)=C/[C@@H]1CO 0.00

Using the record for CC[C@H]1OC(=O)C[C@@H](O)[C@H](C)[C@@H](O[C@@H]2O[C@H](C)[C@@H](O)[C@H](N(C)C)[C@H]2O)[C@@H](CCOc2ccc(C(=O)c3ccccc3)cc2)C[C@@H](C)C(=O)/C=C/C(C)=C/[C@@H]1CO[C@@H]1O[C@H](C)[C@@H](O)[C@@H](OC)[C@H]1OC , report its log10 MIC. -0.60

Query: log10 MIC; subject: CC[C@H]1C[C@@H](C)C(=O)/C=C/C(C)=C/[C@H](C)[C@@H](CC)OC(=O)C[C@@H](O)[C@H](C)[C@H]1O[C@@H]1O[C@H](C)[C@@H](O[C@H]2C[C@@](C)(O)[C@@H](O)[C@H](C)O2)[C@H](N(C)C)[C@H]1O 2.11

Please look up its log10 MIC: CC[C@H]1OC(=O)C[C@@H](O)[C@H](C)[C@@H](O[C@@H]2O[C@H](C)[C@@H](O)[C@H](N(C)C)[C@H]2O)[C@@H](CCN2CCCCCCC2)C[C@@H](C)C(=O)/C=C/C(C)=C/[C@@H]1CO[C@@H]1O[C@H](C)[C@@H](O)[C@@H](O)[C@H]1OC 0.00

Param item = CC[C@H]1OC(=O)C[C@@H](O)[C@H](C)[C@@H](O[C@@H]2O[C@H](C)[C@@H](O[C@H]3C[C@@](C)(O)[C@@H](O)[C@H](C)O3)[C@H](N(C)C)[C@H]2O)[C@@H](CCO)C[C@@H](C)C(=O)/C=C/C(C)=C/[C@@H]1C ; retrieve measured log10 MIC. 1.81

Where these numbers come from: ChEMBL document CHEMBL1124186
